Entry source: paper PMC12650235

# Test system: GII.4 HuNoV VLP (VP1 capsid) (Human norovirus GII.4 Hu/GII.4/DBM15-156/2015)
# test_details: BLI
# assay_context: 5 mM Mg2+; poor fit R2=0.86; BLI: PBST + 5 mM Mg2+, biotin-aptamer 100 nM, VLP 18.75-150 nM, Octet RED96; ELASA: VLP 3 ug/mL, aptamer 1 uM; CD: 10 mM Tris-HCl pH 7.4, 1.0 mM NaCl, 0.05 mM …
assay_readout: Kd (nM)

> print(dat)
                            record.sequence                           target.of.assay  display.unit  numeric.value
1  AACACGACCCACGTACCTGTGTGAGACACAGACCACCAAGGTGGGC [AP4-11-2 (C22T)]  GII.4 HuNoV VLP (VP1 capsid) (Human norovirus GII.4 Hu/GII.4/DBM15-156/2015)            nM           4.62
